Target: USP25 (USP25-His6, Boston Biochem E-546) (Homo sapiens, UniProt Q9UHP3)
Construct: His6; purchased Boston Biochem E-546
Sequence (Q9UHP3 1-1055): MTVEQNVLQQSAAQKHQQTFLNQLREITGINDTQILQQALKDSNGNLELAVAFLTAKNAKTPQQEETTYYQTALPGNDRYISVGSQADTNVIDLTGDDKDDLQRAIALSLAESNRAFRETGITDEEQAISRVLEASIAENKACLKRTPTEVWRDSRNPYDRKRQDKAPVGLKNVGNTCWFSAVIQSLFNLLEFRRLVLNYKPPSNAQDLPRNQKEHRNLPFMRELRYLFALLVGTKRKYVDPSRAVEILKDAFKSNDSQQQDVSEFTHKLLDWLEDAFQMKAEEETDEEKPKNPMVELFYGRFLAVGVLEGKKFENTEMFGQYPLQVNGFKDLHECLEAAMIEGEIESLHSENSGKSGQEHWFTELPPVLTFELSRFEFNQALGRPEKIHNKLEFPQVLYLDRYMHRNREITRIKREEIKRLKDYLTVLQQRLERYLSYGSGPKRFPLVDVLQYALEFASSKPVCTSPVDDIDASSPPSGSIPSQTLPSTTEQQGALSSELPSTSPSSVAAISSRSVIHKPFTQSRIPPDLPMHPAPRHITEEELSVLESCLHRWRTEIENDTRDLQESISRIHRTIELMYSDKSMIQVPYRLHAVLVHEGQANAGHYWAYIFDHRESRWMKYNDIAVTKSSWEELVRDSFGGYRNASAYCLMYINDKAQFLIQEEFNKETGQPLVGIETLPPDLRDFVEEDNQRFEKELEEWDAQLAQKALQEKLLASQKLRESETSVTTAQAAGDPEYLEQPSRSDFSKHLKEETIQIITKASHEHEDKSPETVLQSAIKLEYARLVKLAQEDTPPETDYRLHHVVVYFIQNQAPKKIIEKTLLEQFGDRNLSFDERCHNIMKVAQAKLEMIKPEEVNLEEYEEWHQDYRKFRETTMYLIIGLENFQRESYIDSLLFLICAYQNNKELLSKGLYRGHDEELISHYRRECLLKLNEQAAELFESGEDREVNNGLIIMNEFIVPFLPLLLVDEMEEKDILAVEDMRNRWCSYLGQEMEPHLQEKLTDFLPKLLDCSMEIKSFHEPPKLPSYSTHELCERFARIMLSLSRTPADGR
Experiment: Ubiquitin-Rhodamine 110 Assay for USP25 Activity, Example A-2
Assay type: biochemical
Settings: Ubiquitin-Rhodamine 110 assay, Example A-2; read-out: USP25 A-2 IC50 range
Entries and their IC50
METRIC: IC50

COMPOUND | METRIC | MEASURED_VALUE
Cc1ccc2c(N)c(C(=O)N[C@H]3COc4cc(N5C[C@H](N)C(F)(F)C5)ccc4C3)sc2n1 [Example 256] | IC50 | 200 to 2000 nM
CO[C@@H]1CCN(c2ccc3c(n2)CC[C@H](NC(=O)c2sc4nc(C)ccc4c2N)C3)C[C@H]1N (single isomer, unassigned) [Example 316] | IC50 | > 2000 nM
Cc1ccc2c(N)c(C(=O)N[C@H]3COc4cc(N5C[C@@H]6NCCC(F)(F)[C@@H]6C5)ccc4C3)sc2n1 [Example 237] | IC50 | 200 to 2000 nM
CO[C@@H]1CN(c2ccc3c(c2)OC[C@H](NC(=O)c2sc4nc(C)sc4c2N)C3)C[C@@H]1N [Example 149] | IC50 | 200 to 2000 nM
Cc1ccc2c(N)c(C(=O)N[C@H]3COc4cc(N5CC[C@@H]6CNC[C@@H]65)ccc4C3)sc2n1 [Example 165] | IC50 | 50 to 200 nM
Cc1ccc2c(N)c(C(=O)N[C@H]3CCc4cc(N5CC6CNCC(C5)O6)c(F)cc4C3)sc2n1 [Example 101] | IC50 | 200 to 2000 nM
Cc1ccc2c(N)c(C(=O)N[C@H]3COc4cc(N5C6CNCC5COC6)ccc4C3)sc2n1 [Example 209] | IC50 | 1 to 50 nM
CC(=O)Nc1cccc(CNc2ccc(C(=O)N[C@H]3COc4cc(N5CCNCC5)ccc4C3)cn2)c1 [Example 473] | IC50 | > 2000 nM
CO[C@]1(C)CN(c2ccc3c(n2)CC[C@H](NC(=O)c2sc4nc(C)cnc4c2N)C3)C[C@H]1N [Example 280] | IC50 | > 2000 nM
CO[C@@H]1CN(c2ccc3c(c2)CC[C@H](NC(=O)c2sc4nc(C)ccc4c2N)C3)C[C@@H]1N [Example 143] | IC50 | 200 to 2000 nM
CCO[C@@H]1CN(c2ccc3c(c2)OC[C@H](NC(=O)c2sc4nc(C)ccc4c2N)C3)C[C@@H]1N [Example 151] | IC50 | 200 to 2000 nM
Cc1cc(C)c2c(N)c(C(=O)N[C@H]3COc4cc(N5CC6CCC(C5)N6)c(C#N)c(F)c4C3)sc2n1 [Example 241] | IC50 | 1 to 50 nM
Cc1ccc2c(N)c(C(=O)N[C@H]3COc4cc(N5C[C@H](N)C(C)(C)C5)ccc4C3)sc2n1 [Example 214] | IC50 | 50 to 200 nM
Cc1ccc2c(N)c(C(=O)N[C@H]3COc4cc(N5C[C@@H](N)[C@H](F)C5)ccc4C3)sc2n1 [Example 3-8] | IC50 | 200 to 2000 nM
Cc1ccc2c(N)c(C(=O)N[C@H]3COc4cc(N5C[C@@H]6C[C@H]5CN6)c(F)c(F)c4C3)sc2n1 [Example 112] | IC50 | 200 to 2000 nM
Cc1ccc2c(N)c(C(=O)N[C@H]3COc4c(F)c(N5CC6CCC(C5)N6)cc(F)c4C3)oc2n1 [Example 172] | IC50 | > 2000 nM
Cc1ccc2c(N)c(C(=O)N[C@@H]3CCc4cc(N5CC6CNCC(C5)O6)ccc4C3)sc2n1 [Example 451] | IC50 | 200 to 2000 nM
CO[C@@H]1CCN(c2ccc3c(c2)OC[C@H](NC(=O)c2sc4nc(C)cc(C)c4c2N)C3)C[C@H]1N [Example 318] | IC50 | 200 to 2000 nM
CO[C@H]1CN(c2ccc3c(c2)OC[C@H](NC(=O)c2sc4nc(C)ccc4c2N)C3)C[C@H]1N [Example 122] | IC50 | 200 to 2000 nM
Cc1cnc2c(N)c(C(=O)N[C@H]3COc4cc(N5CCNCC5)ncc4C3)sc2n1 [Example 71] | IC50 | 200 to 2000 nM
CO[C@]1(C)CN(c2ccc3c(n2)CC[C@H](NC(=O)c2sc4nc(C)ccc4c2N)C3)C[C@H]1N [Example 211] | IC50 | > 2000 nM
Cc1ccc2c(N)c(C(=O)N[C@H]3COc4cc(N5CC(O)(C(F)(F)F)C5)ccc4C3)sc2n1 [Example 5-3] | IC50 | 200 to 2000 nM
CO[C@@H]1CN(c2ccc3c(c2)OC[C@H](NC(=O)c2sc4nc(C)ccc4c2N)C3)CC[C@H]1N [Example 129] | IC50 | 200 to 2000 nM
Cc1ccc2c(N)c(C(=O)N[C@H]3COc4cc(N5C[C@@H](N)CC[C@@H]5C(F)(F)F)ccc4C3)sc2n1 [Example 246] | IC50 | 1 to 50 nM
Cc1ccc2c(N)c(C(=O)N[C@H]3COc4cc([C@H]5CCNC[C@@H]5O)ccc4C3)sc2n1 [Example 64] | IC50 | 50 to 200 nM
CCn1ccc2cc(C(=O)N[C@H]3CCc4cc(N5C[C@H](OC)[C@@H](N)C5)ccc4C3)cnc21 [Example 132] | IC50 | > 2000 nM
Cc1ccc2c(N)c(C(=O)N[C@@H]3CCc4cc(N5CCNCC5)c(F)c(F)c4C3)sc2n1 [Example 418] | IC50 | 200 to 2000 nM
CO[C@@]1(C)CN(c2ccc3c(c2)OC[C@H](NC(=O)c2sc4nc(C)ccc4c2N)C3)C[C@@H]1N [Example 281] | IC50 | 200 to 2000 nM
Cc1cnc2c(N)c(C(=O)N[C@H]3CCc4cc(N5CCCNCC5)ccc4C3)sc2n1 [Example 455] | IC50 | 200 to 2000 nM

---

biological target: USP28 (His-tagged USP28-FL-mammalian) (Homo sapiens); construct: Expression of USP28 (1-1077)-TEV-6*His (pTT5 vector); made in house; host or cells: Expi293f cells (pTT5 vector); test: Ubiquitin-Rhodamine 110 Assay for USP28 Activity, Example A-1(a); type: biochemical; settings: Ubiquitin-Rhodamine 110 assay, Example A-1(a); read-out: USP28 A-1(a) IC50 range
Sequence (Q96RU2 whole entry): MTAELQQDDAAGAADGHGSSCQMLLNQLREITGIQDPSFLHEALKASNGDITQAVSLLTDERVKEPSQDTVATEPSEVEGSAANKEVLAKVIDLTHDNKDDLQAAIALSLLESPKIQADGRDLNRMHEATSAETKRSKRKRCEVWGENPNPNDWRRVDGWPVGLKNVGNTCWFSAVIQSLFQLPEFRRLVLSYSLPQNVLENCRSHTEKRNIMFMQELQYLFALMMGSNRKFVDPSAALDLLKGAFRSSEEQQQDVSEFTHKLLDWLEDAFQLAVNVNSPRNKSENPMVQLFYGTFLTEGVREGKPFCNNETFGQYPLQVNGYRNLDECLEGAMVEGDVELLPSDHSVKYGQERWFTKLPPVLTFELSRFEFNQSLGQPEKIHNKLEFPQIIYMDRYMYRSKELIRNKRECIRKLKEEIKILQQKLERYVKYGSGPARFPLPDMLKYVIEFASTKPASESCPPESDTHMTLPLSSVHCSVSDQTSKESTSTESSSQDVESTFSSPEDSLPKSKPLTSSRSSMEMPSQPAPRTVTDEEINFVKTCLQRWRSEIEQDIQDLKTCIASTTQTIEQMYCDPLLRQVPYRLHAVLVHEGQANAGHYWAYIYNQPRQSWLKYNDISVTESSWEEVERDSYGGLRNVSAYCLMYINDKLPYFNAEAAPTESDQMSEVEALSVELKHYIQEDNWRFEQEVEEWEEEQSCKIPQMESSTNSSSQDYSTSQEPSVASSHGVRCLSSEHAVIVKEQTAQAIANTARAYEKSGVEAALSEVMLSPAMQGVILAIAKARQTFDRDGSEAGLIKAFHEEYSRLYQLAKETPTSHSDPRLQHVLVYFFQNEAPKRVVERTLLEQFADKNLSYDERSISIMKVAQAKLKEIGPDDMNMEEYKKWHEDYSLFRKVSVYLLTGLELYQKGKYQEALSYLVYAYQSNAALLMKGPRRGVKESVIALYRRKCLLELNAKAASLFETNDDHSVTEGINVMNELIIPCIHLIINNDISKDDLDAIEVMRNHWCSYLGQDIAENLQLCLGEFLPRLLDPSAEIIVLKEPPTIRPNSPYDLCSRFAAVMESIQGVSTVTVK
METRIC: IC50

COMPOUND | MEASURED_VALUE
Cc1ccc2c(N)c(C(=O)N[C@H]3COc4cc(N5C[C@H](N)C6(COC6)C5)ccc4C3)sc2n1 [Example 258] | 1 to 50 nM
Cc1ccc2c(N)c(C(=O)N[C@H]3CCc4cc(N5CCNCC5)cc(F)c4C3)sc2n1 (single isomer, unassigned) [Example 11-11] | 200 to 2000 nM
CO[C@]1(C)CN(c2ccc3c(n2)CC[C@H](NC(=O)c2sc4nc(C)cnc4c2N)C3)C[C@H]1N [Example 280] | 200 to 2000 nM
Cc1cnc2c(N)c(C(=O)N[C@H]3CCc4cc(N5C[C@H](OC(C)C)[C@@H](N)C5)ccc4C3)sc2n1 [Example 319] | 50 to 200 nM
O=C(N[C@H]1CCc2c(c(F)cc(N3CC4CCC(C3)N4)c2C(F)F)C1)c1cnc2c(c1)[C@H]1C[C@H]1CN2 (single isomer, unassigned) [Example 360] | 1 to 50 nM
COC[C@@H]1CN(c2nc3c(cc2F)C[C@@H](NC(=O)c2sc4nc(C)ccc4c2N)CC3)C[C@@H]1N [Example 300] | 200 to 2000 nM
CCn1ccc2cc(C(=O)N[C@H]3COc4c(F)c([C@@H]5CCNC[C@@H]5O)cc(F)c4C3)nnc21 [Example 84] | 200 to 2000 nM
